# System: BDF1 mice, B16 melanoma ip, median survival T/C
# Assay procedure: NCI In Vivo Anticancer Drug Screen. Data for tumor model B16 Melanoma (intraperitoneal) in B6D2F1 (BDF1) mice
# Settings: endpoint: median survival time; dose: 100.0 mg/kg/injection; schedule: Q04DX003 (ip); vehicle: Klucel (hydroxypropylcellulose) (HPC); higher = longer survival
Inconclusive results and toxic doses are left out.
The entries below come with measured T/C values attached.

Worked examples follow.
OCc1cc2ccccc2[nH]1 ... 112 % of control
O=[N+]([O-])c1cccs1 ... 112 % of control
Cc1cccc(CN2CCN(C(c3ccccc3)c3ccc(Cl)cc3)CC2)c1 (configuration not stated) ... 88 % of control
COc1ccccc1NC(=O)Oc1ccc(-c2ccccc2)cc1Br ... 100 % of control
CCOC(=O)Nc1ccc(OC)cc1 ... 95 % of control

Then this compound:
-- ask Item C#CCC1(OC(N)=O)CCCCC1 has what recorded T/C?
-- reply 103 % of control
